# tissue uptake at 5 min annotations
assay: Biodistribution of 99mTc complexes in rats; format: in vivo, Australian Albino Wistar Rats; details: rat, thymus, rats, 5 min, read-out: biodistribution thymus

Observe how each entry below is paired with its result.
>>> reported_value("CC(C)(C)c1ccc(O)c(NC(=O)CN(CCN(CC(=O)O)CC(=O)Nc2cc(C(C)(C)C)ccc2O)CC(=O)O)c1")
"0.22 %ID/g"
>>> reported_value("O=C(O)CN(CCN(CC(=O)O)CC(=O)Nc1cc([N+](=O)[O-])ccc1O)CC(=O)Nc1cc([N+](=O)[O-])ccc1O")
"0.25 %ID/g"
>>> reported_value("O=C(O)CN(CCN(CC(=O)O)CC(=O)Nc1ccccc1O)CC(=O)Nc1ccccc1O")
"0.19 %ID/g"
>>> reported_value("Nc1ccc(O)c(NC(=O)CN(CCN(CC(=O)O)CC(=O)Nc2cc(N)ccc2O)CC(=O)O)c1")
"0.54 %ID/g"

Per the record, O=C(O)CN(CCN(CC(=O)O)CC(=O)Nc1ccc(Cl)cc1O)CC(=O)Nc1ccc(Cl)cc1O has tissue uptake at 5 min of 0.17 %ID/g

###

assay: Biodistribution of 99mTc complexes in mice; type: in vivo, Balb/c mice; settings: 5 min
Could you mark each record TRUE if its biodistribution skin falls strictly under 9 % Injected dose, and FALSE if it equals or exceeds it?

Is 9 % Injected dose strictly greater than the compound's reported biodistribution skin? compound: Nc1ccc(O)c(NC(=O)CN(CCN(CC(=O)O)CC(=O)Nc2cc(N)ccc2O)CC(=O)O)c1 [Compound 5]
FALSE

Would you kindly verify if biodistribution skin of O=C(O)CN(CCN(CC(=O)O)CC(=O)Nc1ccc(Cl)cc1O)CC(=O)Nc1ccc(Cl)cc1O [Compound 2] is strictly less than 9 % Injected dose?
TRUE

Say whether its biodistribution skin is strictly beneath 9 % Injected dose. Entry: O=C(O)CN(CCN(CC(=O)O)CC(=O)Nc1ccccc1O)CC(=O)Nc1ccccc1O [Compound 1]
FALSE

In the record for Cc1cc(C)c(O)c(NC(=O)CN(CCN(CC(=O)O)CC(=O)Nc2cc(C)cc(C)c2O)CC(=O)O)c1 [Compound 6] , is biodistribution skin less than 9 % Injected dose?
FALSE

Does the reported biodistribution skin of the following compound sit strictly below 9 % Injected dose? CC(C)(C)c1ccc(O)c(NC(=O)CN(CCN(CC(=O)O)CC(=O)Nc2cc(C(C)(C)C)ccc2O)CC(=O)O)c1 [Compound 4]
TRUE

###

experiment: Biodistribution of 99mTc complexes in mice; format: in vivo, Balb/c mice; details: 30 min
property name: biodistribution GIT (% Injected dose)
Please give a number only; it is taken to be in % Injected dose.

>>> reported_value("Cc1cc(C)c(O)c(NC(=O)CN(CCN(CC(=O)O)CC(=O)Nc2cc(C)cc(C)c2O)CC(=O)O)c1")
51.18

For this compound ( O=C(O)CN(CCN(CC(=O)O)CC(=O)Nc1ccccc1O)CC(=O)Nc1ccccc1O ), measured biodistribution GIT is 20

Just so you know, measured biodistribution GIT for CC(C)(C)c1ccc(O)c(NC(=O)CN(CCN(CC(=O)O)CC(=O)Nc2cc(C(C)(C)C)ccc2O)CC(=O)O)c1 came out at 39.97

According to the records, this compound O=C(O)CN(CCN(CC(=O)O)CC(=O)Nc1ccc(Cl)cc1O)CC(=O)Nc1ccc(Cl)cc1O displays biodistribution GIT of 16.24

###

Assay: Biodistribution of 99mTc complexes in mice
Type: in vivo, Balb/c mice
Conditions: 3 min
Experimental: A series of derivatives incorporating carboxyl and phenolate donor groups (1-6) were synthesised by literature method and their radiolabelling characteristic and biological behaviour evaluated. […] A typical method of radiolabelling of the chelator was achieved by dissolving the chelator in a basic solution of saline. […] The efficacy of labelling was determined by ITLC-SG. […]
property name: biodistribution spleen (% Injected dose)
Respond with the bare value in % Injected dose.

>>> reported_value("O=C(O)CN(CCN(CC(=O)O)CC(=O)Nc1ccc(Cl)cc1O)CC(=O)Nc1ccc(Cl)cc1O")
0.16

Notebook: Nc1ccc(O)c(NC(=O)CN(CCN(CC(=O)O)CC(=O)Nc2cc(N)ccc2O)CC(=O)O)c1 , biodistribution spleen read as 0.16

Form: compound = O=C(O)CN(CCN(CC(=O)O)CC(=O)Nc1ccccc1O)CC(=O)Nc1ccccc1O ; biodistribution spleen = 0.1

Measured biodistribution spleen, CC(C)(C)c1ccc(O)c(NC(=O)CN(CCN(CC(=O)O)CC(=O)Nc2cc(C(C)(C)C)ccc2O)CC(=O)O)c1 : 0.12

Briefly, biodistribution spleen measured for Cc1cc(C)c(O)c(NC(=O)CN(CCN(CC(=O)O)CC(=O)Nc2cc(C)cc(C)c2O)CC(=O)O)c1 : 0.09

###

test: Biodistribution of 99mTc complexes in mice; format: in vivo, Balb/c mice; settings: 5 min
property name: biodistribution kidney
Respond with the figure and its unit, in that order.

Here is how some molecules turned out for biodistribution kidney.
>>> reported_value("CC(C)(C)c1ccc(O)c(NC(=O)CN(CCN(CC(=O)O)CC(=O)Nc2cc(C(C)(C)C)ccc2O)CC(=O)O)c1")
"4.18 % Injected dose"
>>> reported_value("Cc1cc(C)c(O)c(NC(=O)CN(CCN(CC(=O)O)CC(=O)Nc2cc(C)cc(C)c2O)CC(=O)O)c1")
"4.53 % Injected dose"
>>> reported_value("Nc1ccc(O)c(NC(=O)CN(CCN(CC(=O)O)CC(=O)Nc2cc(N)ccc2O)CC(=O)O)c1")
"6.71 % Injected dose"

The molecule listed as O=C(O)CN(CCN(CC(=O)O)CC(=O)Nc1ccc(Cl)cc1O)CC(=O)Nc1ccc(Cl)cc1O has a reported biodistribution kidney of 5.45 % Injected dose

// field: biodistribution kidney; key: O=C(O)CN(CCN(CC(=O)O)CC(=O)Nc1ccccc1O)CC(=O)Nc1ccccc1O ; value = 9.17 % Injected dose

###

test: Biodistribution of 99mTc complexes in rats; format: in vivo, Australian Albino Wistar Rats; details: rat, eyes, rats, 5 min, read-out: biodistribution eyes
Reported tissue uptake at 5 min values follow for various molecules

>>> reported_value("Nc1ccc(O)c(NC(=O)CN(CCN(CC(=O)O)CC(=O)Nc2cc(N)ccc2O)CC(=O)O)c1 [Compound 5]")
"0.18 %ID/g"
>>> reported_value("O=C(O)CN(CCN(CC(=O)O)CC(=O)Nc1ccccc1O)CC(=O)Nc1ccccc1O [Compound 1]")
"0.17 %ID/g"

O=C(O)CN(CCN(CC(=O)O)CC(=O)Nc1ccc(Cl)cc1O)CC(=O)Nc1ccc(Cl)cc1O [Compound 2] yielded tissue uptake at 5 min of 0.1 %ID/g

The molecule identified as O=C(O)CN(CCN(CC(=O)O)CC(=O)Nc1cc([N+](=O)[O-])ccc1O)CC(=O)Nc1cc([N+](=O)[O-])ccc1O [Compound 3] registered its tissue uptake at 5 min at 0.17 %ID/g

Lab book: tissue uptake at 5 min of CC(C)(C)c1ccc(O)c(NC(=O)CN(CCN(CC(=O)O)CC(=O)Nc2cc(C(C)(C)C)ccc2O)CC(=O)O)c1 [Compound 4] noted as 0.13 %ID/g

###

assay: Biodistribution of 99mTc complexes in rats; assay type: in vivo, Australian Albino Wistar Rats; details: rat, heart, rats, 1 min, read-out: biodistribution heart
The following compounds are listed with their measured tissue uptake at 1 min values.
The answer is to be given in %ID/g; state only the numeric part.

// solved cases for tissue uptake at 1 min follow
>>> reported_value("O=C(O)CN(CCN(CC(=O)O)CC(=O)Nc1ccccc1O)CC(=O)Nc1ccccc1O")
0.67
>>> reported_value("CC(C)(C)c1ccc(O)c(NC(=O)CN(CCN(CC(=O)O)CC(=O)Nc2cc(C(C)(C)C)ccc2O)CC(=O)O)c1")
1.26
>>> reported_value("Nc1ccc(O)c(NC(=O)CN(CCN(CC(=O)O)CC(=O)Nc2cc(N)ccc2O)CC(=O)O)c1")
1.62

Sure, the documented tissue uptake at 1 min for O=C(O)CN(CCN(CC(=O)O)CC(=O)Nc1cc([N+](=O)[O-])ccc1O)CC(=O)Nc1cc([N+](=O)[O-])ccc1O is 0.65

Per the record, O=C(O)CN(CCN(CC(=O)O)CC(=O)Nc1ccc(Cl)cc1O)CC(=O)Nc1ccc(Cl)cc1O has tissue uptake at 1 min of 0.93

###

assay: Biodistribution of 99mTc complexes in rats; assay type: in vivo, Australian Albino Wistar Rats; details: rat, eyes, rats, 10 min, read-out: biodistribution eyes
Parameter: tissue uptake at 10 min. Scope: all listed entries.
Only the number, expressed in %ID/g, is required.

>>> reported_value("O=C(O)CN(CCN(CC(=O)O)CC(=O)Nc1cc([N+](=O)[O-])ccc1O)CC(=O)Nc1cc([N+](=O)[O-])ccc1O")
0.18

tissue uptake at 10 min measured on Nc1ccc(O)c(NC(=O)CN(CCN(CC(=O)O)CC(=O)Nc2cc(N)ccc2O)CC(=O)O)c1 = 0.18

The values you see were collected from patent US5807535A.
